Molecular target: human GLP-1 receptor (human, UniProt P43220 24-463)
Assay: cell-based or functional assay
Starred links: 1 amine or outer side, 2 acyl side, 3 side chain; linkers in the order of their positions; H or OH if unused. Non-standard residues stand in square brackets, D forms with d. Groups on a side chain read outwards from the residue. No end group written: not given here. *: point of attachment. C20 diacid = O=C(O)CCCCCCCCCCCCCCCCCCC(=O)*; γGlu = O=C(O)[C@H](CCC(=O)[*:2])N[*:1]; αMeF = C[C@](N)(Cc1ccccc1)C(=O)O; AEEA = NCCOCCOCC(=O)O; Ac3c = NC1(C(=O)O)CC1; Aib = CC(C)(N)C(=O)O
Recorded measurements of cAMP Rel. A (%) against human GLP-1 (7-37), human GLP-1 R cells, one per entry
ATTRIBUTE MEASURED: cAMP Rel. A (%) against human GLP-1 (7-37), human GLP-1 R cells

[[record]]
binder = "YXQGTXTSDYSIFLDKKAQXAFIEYLLEXHPSSGAPPXS (Aib at 2; αMeF(2F) at 6; Lys 17 side chain AEEAc-AEEAc-γGlu-CO(CH2)18COOH; Aib at 20; Aib at 29; Ac3c at 38; C-terminal amide (NH2)) [Compound 32]"
recorded_result = 314

[[record]]
binder = "YXQGTXTSDYSIXLDKKAQXAFIEYLLETGPSSGQPPXS (Aib at 2; αMeF at 6; αMeL at 13; Lys 17 side chain AEEAc-AEEAc-γGlu-CO(CH2)18COOH; Aib at 20; Ac3c at 38; C-terminal amide (NH2)) [Compound 35]"
recorded_result = 200

[[record]]
binder = "YXQGTXTSDYSILLDKKAQXAFIEFLLESHPSSXHPPXS (Aib at 2; αMeF at 6; Lys 17 side chain AEEAc-AEEAc-γGlu-CO(CH2)18COOH; Aib at 20; Aib at 34; Ac3c at 38; C-terminal amide (NH2)) [Compound 42]"
recorded_result = 489

[[record]]
binder = "YXQGTXTSDYSIXLDKKAQXAFIEFLLEXHPSSGAPPPS (Aib at 2; αMeF(2F) at 6; αMeL at 13; Lys 17 side chain AEEAc-AEEAc-γGlu-CO(CH2)18COOH; Aib at 20; Aib at 29; C-terminal amide (NH2)) [Compound 20]"
recorded_result = 440

[[record]]
binder = "Y[Aib]QGT[αMeF]TSDYSIXLDKK([AEEA-AEEA-γGlu-C20 diacid])AQ[Aib]AFIEFLLES[Aib]PSSGAPP[Ac3c]S-NH2 (not fully specified (residue 13); printed as Y-Aib-QGT-αMeF-TSDYSI-αMeF-LDKK(AEEAc-AEEAc-γGlu-CO(CH2)18COOH)AQ-Aib-AFIEFLLES-Aib-PSSGAPP-Ac3c-S-NH2) [Compound 28]"
recorded_result = 183

[[record]]
binder = "YXQGTXTSDYSIFLDKKAQXAFIEFLLEGGPSSGAPPXS (Aib at 2; αMeF(2F) at 6; Lys 17 side chain AEEAc-AEEAc-γGlu-CO(CH2)18COOH; Aib at 20; Ac3c at 38; C-terminal amide (NH2)) [Compound 5]"
recorded_result = 200

[[record]]
binder = "YXQGTXTSDYSIFLDKKAQXAFIEFLLEXHPSSGAPPPS (Aib at 2; αMeF at 6; Lys 17 side chain AEEAc-AEEAc-γGlu-CO(CH2)18COOH; Aib at 20; Aib at 29; C-terminal amide (NH2)) [Compound 16]"
recorded_result = 220

[[record]]
binder = "YXQGTXTSDYSIFLDKKAQXAFIEYLLETGPSSGAPPPS (Aib at 2; αMeF at 6; Lys 17 side chain AEEAc-AEEAc-γGlu-CO(CH2)18COOH; Aib at 20; C-terminal amide (NH2)) [Compound 13]"
recorded_result = 367

[[record]]
binder = "YXQGTXTSDYSIXLDKKAQXAFIEFLLETGPSSGAPPPS (Aib at 2; αMeF(2F) at 6; αMeL at 13; Lys 17 side chain AEEAc-AEEAc-γGlu-CO(CH2)18COOH; Aib at 20; C-terminal amide (NH2)) [Compound 19]"
recorded_result = 489

[[record]]
binder = "YXQGTXTSDYSIXLDKKAQXAFIEYLLESHPSSGAPPPS (Aib at 2; αMeF at 6; αMeF at 13; Lys 17 side chain AEEAc-AEEAc-γGlu-CO(CH2)18COOH; Aib at 20; C-terminal amide (NH2)) [Compound 27]"
recorded_result = 275

[[record]]
binder = "YXQGTXTSDYSIFLDKKAQXAFIEFLLEGGPSSGQPPPS (Aib at 2; αMeF(2F) at 6; Lys 17 side chain AEEAc-AEEAc-γGlu-CO(CH2)18COOH; Aib at 20; C-terminal amide (NH2)) [Compound 21]"
recorded_result = 880

